Target Entity: T1, Processed stabilized hMPV PreF trimer (115BV) (human metapneumovirus, strain B2)
T1 construct: also called Processed hMPV PreF trimer; processed PreF
Test Summary: BLI, ratio to unprocessed PreF trimer
Parameter: processed/unprocessed PreF trimer binding ratio

[ask] Name the recorded processed/unprocessed PreF trimer binding ratio for M4A06 (antibody, V domains shown, IgG) VH: EVQLVESGGGLVRPGGSLRLSCAASGFSLTTDEVNWVRQAPGKGPEWVSFISASGHTIYYADSVKGRFTISRDNGRNSVYLQMNSLRAEDTAVYYCARVGRLGGVGYYYALGPFDLWGQGTMVTVSS VL: EIVLTQSPGTLSLSPGERATLSCRASQSITSNYLAWYQQKPGQAPRLLIYGASSRATGIPDRFSGSGSGTDFTLTISRLQPEDFAVYYCQQYGSSLYIFGQGTKLEIK .
[reply] 0.78

[ask] Which processed/unprocessed PreF trimer binding ratio value belongs to M2C05 (antibody, V domains shown, IgG) VH: EVQLLESGGGLVQPGGSLRLSCAGSGFTFSNYAMSWVRQAPGKGLEWVSDINDRGETTHYADSVKGRFTISRDNSKKKLFLQMNDLRAEDTAIYYCTRAYVVLSVYAPKGFDYWGQGTLVSVSS VL: DIQMTQSPSILSASEGDRVTITCRASQSVSNWLAWYQQKSGRAPKLLIYKASSLETGVPSRFSGSGSGTEFTLTINNLQPDDFATYYCQHYNGYPYTFGQGTKLEIK ?
[reply] 1.16

[ask] Could you share which processed/unprocessed PreF trimer binding ratio value was measured for M2B09 (antibody, V domains shown, IgG) VH: QVQLVQSGPEVKGPGASVRVSCKANGYTFTSYGINWVRQTPGQGLQWMGWISVHTDDTKDVQQFQDRVTMTTDTSTSTVFMELRNLRFDDTAVYYCARDRTDISGRVRDAFDLWGQGTLVTVSS VL: SYVLTQPPSVSVAPGQTAKITCGGNNIGSKSVHWYRQKPGQAPVLVVYDDSDRPSGIPERFSGSNSGNTATLTISRVEAGDEADYYCHVWDSYSDPNYVFGSGTKVTVL ?
[reply] 0.03
